- Test system: influenza virus (A/HPB/359/95 (H3N2))
- protocol: organism not typed
- test parameters: MDCK, read-out: Anti-IAV EC50

{"molecule": "C[C@@]1(N2[C@@H]3COC4(CC4)CN3C(=O)c3c(OCOP(=O)(O)O)c(=O)ccn32)c2ccccc2[Se]Cc2c1ccc(F)c2F", "EC50": "0.29 nM"}
{"molecule": "COC(=O)OCOc1c2n(ccc1=O)N([C@@H]1c3ccccc3SCc3c1ccc(F)c3F)[C@@H]1COC3(CC3)CN1C2=O [Compound M42, reference compound]", "EC50": "0.76 nM"}
{"molecule": "[2H]C([2H])([2H])OC(=O)OCOc1c2n(ccc1=O)N([C@@H]1c3ccccc3SCc3c1ccc(F)c3F)[C@@H]1COC3(CC3)CN1C2=O", "EC50": "0.65 nM"}
{"molecule": "O=C1c2c(OCOP3(=O)OCCCO3)c(=O)ccn2N([C@@H]2c3ccccc3[Se]Cc3c2ccc(F)c3F)[C@@H]2COC3(CC3)CN12", "EC50": "0.25 nM"}
{"molecule": "[2H][C@@]1(N2[C@@H]3COC4(CC4)CN3C(=O)c3c(OCOC(=O)OC)c(=O)ccn32)c2ccccc2[Se]Cc2c1ccc(F)c2F", "EC50": "0.28 nM"}
{"molecule": "O=C1c2c(OCOP(=O)(OCc3ccccc3)OCc3ccccc3)c(=O)ccn2N([C@@H]2c3ccccc3[Se]Cc3c2ccc(F)c3F)[C@@H]2COC3(CC3)CN12", "EC50": "0.21 nM"}
